measurementTarget: T1, OmpT (omptin outer membrane protease of Escherichia coli), recombinant, reconstituted in detergent micelles (Escherichia coli, UniProt P09169 21-317)
T1 sequence: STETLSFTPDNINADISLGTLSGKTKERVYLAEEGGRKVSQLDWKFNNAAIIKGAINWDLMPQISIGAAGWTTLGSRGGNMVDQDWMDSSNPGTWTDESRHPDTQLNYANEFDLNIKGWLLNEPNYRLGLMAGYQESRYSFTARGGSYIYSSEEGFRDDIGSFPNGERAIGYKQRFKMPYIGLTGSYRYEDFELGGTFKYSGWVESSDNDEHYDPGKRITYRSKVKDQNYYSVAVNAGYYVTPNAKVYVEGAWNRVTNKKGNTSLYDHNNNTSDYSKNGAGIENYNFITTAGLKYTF
testDescription: cell-based or functional assay
Where no end group is shown, it is not given here.
experimentalReadout: incubation time with OmpT for an almost complete reduction in PT6 fluorescence

binder | recordedResult
CLLGDFFRRVKEKIG-NH2 [LL37FRRV (CLLGDFFRRVKEKIG)] | > 40 min
CLLGDFFRRAKEKIG [LL37FRRA (CLLGDFFRRAKEKIG)] | < 20 min
CLLGDFYRRAKEKIG [LL37YRRA (CLLGDFYRRAKEKIG)] | < 20 min

# next binder below
Prompt: Record request: incubation time with OmpT for an almost complete reduction in PT6 fluorescence value, item CLLGDFFRRYKEKIG [LL37FRRY (CLLGDFFRRYKEKIG)]
Completion: < 20 min
